FYI, the data here is from patent US20150025225A1.

TEST TARGET: T1, Baboon EL-C2 tag (baboon, UniProt Q9Y5X9 21-500 (human entry), limits assumed)
T1 construct: used as heparin extract of transfected HEK293F cells; also called baboon EL heparin extract
T1 chain: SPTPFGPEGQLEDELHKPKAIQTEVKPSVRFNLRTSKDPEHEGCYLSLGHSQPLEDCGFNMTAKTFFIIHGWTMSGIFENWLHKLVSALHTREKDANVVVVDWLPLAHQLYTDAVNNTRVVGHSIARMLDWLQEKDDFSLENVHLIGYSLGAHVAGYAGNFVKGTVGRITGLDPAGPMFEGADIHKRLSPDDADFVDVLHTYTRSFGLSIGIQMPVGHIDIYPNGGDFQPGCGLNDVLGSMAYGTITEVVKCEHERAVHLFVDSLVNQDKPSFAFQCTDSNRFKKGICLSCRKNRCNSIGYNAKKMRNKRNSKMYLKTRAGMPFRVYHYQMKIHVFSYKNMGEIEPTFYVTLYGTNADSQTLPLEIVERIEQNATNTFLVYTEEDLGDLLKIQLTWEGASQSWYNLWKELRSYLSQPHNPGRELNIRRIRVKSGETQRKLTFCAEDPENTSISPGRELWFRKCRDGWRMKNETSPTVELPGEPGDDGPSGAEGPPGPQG
EXPERIMENT: Biacore SPR; EL captured by anti-C2-tag antibody, antibody as analyte, bivalent fit; column head prints nM, kd/ka gives M
MEASUREMENT LABEL: Kd (nM)
Please respond with the number in nM and leave the unit unwritten.

Sample answers from the record:
BINDER	ENDPOINT UNIT	Kd
41H8 antibody (antibody, IgG1, V domains shown) VH: QVTLKESGPGILQPSQTLSLTCSFSGFSLSTYGMGVGWIRQPSGKGLEWLAHIWWNENKYYNTDLKSRLTISKDTSNNQVFLKIASVDTADTATYYCARIGPGVPFDYWGQGTTITVSS VL: DIQMTQSPSSLSASLGGKVTITCKASQDINKFIAWYQHKPGKGPRLLIHYTSTLQPGIPSRFNGSGSGRDYSFTISNLEPEDIATYYCLQYDILTWTFGGGTKLEIK	nM	2.6
3B1 antibody (antibody, IgG1, V domains shown) VH: QVTLKESGPGILQPSQTLSLTCSFSGFSLSTSGVGVGWIRQPSGKGLEWLAHIWWNDNKYYNTALKSRLTISKDTSNNQVFLKIASVDTADTATYFCARSYDGYPFDYWGQGTLVTVSA VL: DIQMTQSPSSLSASLGGKVTITCKASQDINKYIVWYQHKPGKGPRLLIHHTSTLQPGIPSRFSESGSGRDYSFSISNLEPEDIASYYCLQYDTLLWTFGGGTKLEIR	nM	1.5
16A11 antibody (antibody, IgG1, V domains shown) VH: QVTLKESGPGILQPSQTLSLTCSFSGFSLSTSGMGVGWVRQPSGKGLEWLAHIWWNDYYYYKTALKSRLTISKDTSNNQVFLKIASVDTVDTATYYCARMAPGTPFPSWGQGTLVTVSA VL: DIQMTQSPSSLSASLGGKVTITCKASQDINRYIAWYQHKPGKGPRLLIHYTSTLQPGIPSRFSGSGSGRDYSFSISNLEPEDIATYYCLQYDILLWTFGGGTKLEIK	nM	1
12B10 antibody (antibody, IgG2a, V domains shown) VH: QVTLKESGPGILKPSQTLSLTCSFSGFSLSTSGMGVGWIRQPSGKGLEWLAHIWWNDEKYYNPSLKSQLTISKDTSRNQVFLKITSVDTADTATYYCARSYDGSPFPSWGQGTLVTVSA VL: DIQMTQSPSSLSASLGGKVTITCKASQDINKYIAWFQHKPGKGPRLLMAYPFTLQPGIPSRFSGNGSGRDYSFSISNLEPEDIATYYCLQYDNLLWTFGGGTRLEIK	nM	0.6
47B2 antibody (antibody, IgG2a, V domains shown) VH: QVALKESGPGILQPSQTLSLTCSFSGFSLSTSGMGVGWIRQPSGKGLEWLAHIWWHGNKYYSTGLKSRLTISKDTSNNQVFLKIASVDTADTATYYCARISAGYPLDYWGQGTSVTVSS VL: DIQMTQSPSSLSASLGGKVTITCKASQDINKYIVWYQHKPGKGPRLLIHYTSTLQPGFPSRFSGSGSGRDYSLSITNLEPEDIATYYCLQYDNLLWTFGGGTKLEIK	nM	4

Inquiry: What value of measured Kd is listed for 25E4 antibody (antibody, IgG2b, V domains shown) VH: QVALKESGPGILQPSQTLSLTCSFSGFSLSTSGMGVGWIRQPSGKGLEWLAHIWWHGNKYYSTALKSRLTISKDTSNNQVFLKIASVDTADTATYYCARISDGYPLDYWGQGTSVTVSS VL: DIQMTQSPSSLSASLGGKVTITCKASQDINKYIVWYQQKPGKGPRLLIHYTSTLQPGFPSRFSGSGSGRDYSLSITNLEPEDIATYYCLQYDNLLWTFGGGTKLEIK ?
Reply text: 0.64
